test: Biodistribution of 68Ga-labeled peptide in mice bearing B16F10 mouse melanoma; format: in vivo, C57BL/6J mice; details: testes, iv, total radioactivity, 2 h p.i. unblocked, C57BL/6J mice, B16F10 melanoma, read-out: Biodistribution, Testes
measurementKind: tissue uptake at 2 h (%ID/g)
Report the figure in %ID/g without appending any unit label.

Ask: Param item = CCCC[C@H](NC(=O)CN1CCC(NC(=O)CN2CCN(CC(=O)O)CCN(CC(=O)O)CCN(CC(=O)O)CC2)CC1)C(=O)N[C@H]1CC(=O)NCCCC[C@@H](C(N)=O)N(C)C(=O)[C@H](Cc2c[nH]c3ccccc23)N(C)C(=O)[C@H](CCCNC(=N)N)N(C)C(=O)[C@@H](Cc2ccccc2)NC(=O)[C@H](Cc2c[nH]cn2)N(C)C1=O [^68Ga-labeled CCZ01099, metal not drawn] ; retrieve measured tissue uptake at 2 h.
Reply: 0.07

Provenance of the data: patent US11395857B2
